- experimentalSystem: IRAK4 (Homo sapiens, UniProt Q9NWZ3)
- Construct: endogenous in cells; host or cells: THP-1 cells
- Sequence (Q9NWZ3 whole entry): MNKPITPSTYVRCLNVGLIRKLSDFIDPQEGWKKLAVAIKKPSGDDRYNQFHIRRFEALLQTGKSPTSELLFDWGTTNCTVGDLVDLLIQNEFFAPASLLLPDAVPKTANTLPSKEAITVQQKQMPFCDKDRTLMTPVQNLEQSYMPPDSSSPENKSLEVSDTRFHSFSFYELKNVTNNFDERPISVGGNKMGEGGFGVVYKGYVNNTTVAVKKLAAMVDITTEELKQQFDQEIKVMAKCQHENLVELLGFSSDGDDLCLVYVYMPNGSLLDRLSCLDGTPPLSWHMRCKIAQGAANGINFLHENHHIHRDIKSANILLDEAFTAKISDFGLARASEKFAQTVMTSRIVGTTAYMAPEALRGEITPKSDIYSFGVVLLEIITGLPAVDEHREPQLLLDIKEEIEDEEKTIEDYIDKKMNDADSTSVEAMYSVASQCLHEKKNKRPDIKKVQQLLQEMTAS
- assayName: LVL THP1 HTRF (THP1 Homogeneous Time Resolved Fluorescence)
- Assay type: cell-based
- assayContext: THP1 cells, 18 h incubation with compound, read-out: LVL THP1 HTRF EC50
- Procedure: Cell culture media was prepared in a tissue culture hood in a sterile environment by adding 10% FBS and 1% Penicillin Streptomycin to 500 mL no phenol red RPMI 1640 media. The media was filtered through a Nalgene Bottle Top Filter and stored at 4° C. For Homogenous Time Resolved Fluorescence (HTRF) assays, a Cisbio HTRF kit was used, which included: Lysis Buffer #1 4×, Blocking Reagent #3 100×, 20× Antibody 1 (Anti-IRAK4 d2), 20× Antibody 2 (Anti-IRAK4 k), and Detection Buffer. […]
Structures can show the parent of a compound that is named as a salt.
quantity: DC50 (nM)
Only the number, expressed in nM, is required.

The cases that follow already have their DC50 on record.
* C[C@H](C#N)Nc1cc(-n2ncc3cc(C#N)cnc32)ncc1-n1cc([C@H]2CC[C@H](CCN3CC[C@H]4[C@@H]3CCN4c3ccc(N4CCC(=O)NC4=O)c(Cl)c3)CC2)nn1 (single isomer, unassigned) [P-478] | 161
* C[C@H](C#N)Nc1cc(Nc2ncc(C#N)cc2F)ncc1-n1cc([C@H]2CC[C@H](CCN3CCN(c4ccc(C5CCC(=O)NC5=O)cc4)CC3)CC2)nn1 (some centres unmarked) | 8.3
* C[C@H](C#N)Nc1cc(-n2ncc3cc(C#N)cnc32)ncc1-n1cc(C2CCC(CCN3[C@@H](C)CN(c4ccc(C5CCC(=O)NC5=O)cc4)C[C@@H]3C)CC2)nn1 (some centres unmarked) | 2

Asked: Return reported DC50; argument: C[C@H](C#N)Nc1cc(-n2ncc3cc(C#N)cnc32)ncc1-n1cc([C@H]2CC[C@H](CCN3CC[C@H](c4ccc([C@@]5(F)CCC(=O)NC5=O)cc4)C[C@H]3C)CC2)nn1 (single isomer, unassigned)
Given back: 4

Asked: Return reported DC50; argument: C[C@H](C#N)Nc1cc(-n2ncc3cc(C#N)cnc32)ncc1-n1cc([C@H]2CC[C@H](CCN3CCN(c4ccc(C5CCC(=O)NC5=O)cc4)CC3)CC2)nn1 (some centres unmarked) [P-139, formic acid salt]
Given back: 11

Ref: patent US20240109881A1
